target: Human serotonin 5-HT6 receptor (Homo sapiens, UniProt P50406); experiment: [3H]LSD binding assay on cloned 5-HT6 receptor; details: IC50 (nM), binding affinity to the 5-HT6 receptor, Table 2; 1.87 nM [3H]LSD, cloned human receptor membranes from Sf21 cells, 37° C. 60 min
Sequence (P50406 whole entry): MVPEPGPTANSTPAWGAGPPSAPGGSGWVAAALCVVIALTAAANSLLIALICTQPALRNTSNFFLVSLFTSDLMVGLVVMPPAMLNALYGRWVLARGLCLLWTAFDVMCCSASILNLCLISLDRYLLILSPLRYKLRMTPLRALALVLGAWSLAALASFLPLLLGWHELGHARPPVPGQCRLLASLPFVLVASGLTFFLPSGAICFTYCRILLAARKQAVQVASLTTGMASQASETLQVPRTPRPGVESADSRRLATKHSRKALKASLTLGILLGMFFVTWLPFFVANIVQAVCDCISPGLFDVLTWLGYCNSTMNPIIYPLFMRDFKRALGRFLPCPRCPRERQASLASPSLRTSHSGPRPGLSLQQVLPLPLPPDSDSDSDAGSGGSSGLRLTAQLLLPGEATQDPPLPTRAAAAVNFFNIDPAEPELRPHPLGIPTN
Listed here: items and their measured IC50.
Quick note: give the figure in nM, leave out the unit.

The following compounds have reported results that may help.
>>> df
                            smiles_notation  result
0  CN1CCN(c2cc(Cl)cc3c2S(=O)(=O)N(Cc2ccccc2Cl)C(=O)N3Cc2ccccc2)CC1     1.3
1  C[C@H](c1ccccc1)N1C(=O)N(Cc2ccccc2)c2cc(Cl)cc(N3CCN(C)CC3)c2S1(=O)=O     1.1
2  CN1CCN(c2cc(Cl)cc3c2S(=O)(=O)N(Cc2ccc(C#N)cc2)C(=O)N3Cc2ccccc2)CC1     6.4
3  O=C1N(Cc2ccccc2)c2cc(Cl)cc(N3CCNCC3)c2S(=O)(=O)N1Cc1ccc(I)cc1    17.1
4  CN1CCN(c2cc(Cl)cc3c2S(=O)(=O)N(Cc2cccc(F)c2)C(=O)N3Cc2ccccc2)CC1     0.7

In: Item CN1CCN(c2cc(Cl)cc3c2S(=O)(=O)N(Cc2ccccc2F)C(=O)N3Cc2ccccc2)CC1 : provide IC50
Out: 1.9

In: Item CN1CCN(c2cc(Cl)cc3c2S(=O)(=O)N(Cc2ccc([N+](=O)[O-])cc2)C(=O)N3Cc2ccccc2)CC1 : provide IC50
Out: 8.1

====

target: 5-HT2c (Homo sapiens); construct: purchased Euroscreen/BioSignal Packard Inc; experiment: Radioligand binding, 5-HT receptor family: 5-HT2c ([3H]Mesulergine); conditions: CHO-K1 human recombinant receptor, [3H]Mesulergine 1 nM; read-out: Binding affinity, IC50 (nM), 5-HT2c
Sequence (P28335 33-458): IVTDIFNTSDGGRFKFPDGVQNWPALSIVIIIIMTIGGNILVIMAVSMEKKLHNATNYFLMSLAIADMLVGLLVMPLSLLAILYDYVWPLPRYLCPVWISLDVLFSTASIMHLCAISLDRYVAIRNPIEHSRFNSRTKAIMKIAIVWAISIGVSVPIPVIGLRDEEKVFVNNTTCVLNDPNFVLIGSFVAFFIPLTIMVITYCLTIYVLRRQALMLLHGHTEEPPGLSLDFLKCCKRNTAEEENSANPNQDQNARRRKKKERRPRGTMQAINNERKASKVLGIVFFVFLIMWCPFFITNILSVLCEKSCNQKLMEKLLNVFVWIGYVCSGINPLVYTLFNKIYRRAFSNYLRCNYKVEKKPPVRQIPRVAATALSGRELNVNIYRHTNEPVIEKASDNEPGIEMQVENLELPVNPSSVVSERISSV
Listed here: items and their measured IC50.

The following compounds have reported results that may help.
                            smiles_notation           assay_system  quantity_measured  result
0  C[C@H](c1ccccc1)N1C(=O)N(Cc2ccccc2)c2cc(Cl)cc(N3CCNCC3)c2S1(=O)=O  5-HT2c (Homo sapiens)               IC50  424 nM
1  CN1CCN(c2cc(Cl)cc3c2S(=O)(=O)N(Cc2ccccc2)C(=O)N3Cc2ccccc2)CC1  5-HT2c (Homo sapiens)               IC50  785 nM
2  COc1ccc(CN2C(=O)N(Cc3ccccc3)c3cc(Cl)cc(N4CCN(C)CC4)c3S2(=O)=O)cc1  5-HT2c (Homo sapiens)               IC50  990 nM

Could you now consider this next compound?
In: Please respond with reported IC50 (system 5-HT2c (Homo sapiens)) for C[C@@H](c1ccccc1)N1C(=O)N(Cc2ccccc2)c2cc(Cl)cc(N3CCN(C)CC3)c2S1(=O)=O .
Out: 183 nM

====

target: 5-HT7 (Homo sapiens); construct: purchased Euroscreen/BioSignal Packard Inc; test: Radioligand binding, 5-HT receptor family: 5-HT7 ([3H]LSD); conditions: CHO-K1 human recombinant receptor, [3H]LSD 3 nM; read-out: Binding affinity, IC50 (nM), 5-HT7
Sequence (P34969 whole entry): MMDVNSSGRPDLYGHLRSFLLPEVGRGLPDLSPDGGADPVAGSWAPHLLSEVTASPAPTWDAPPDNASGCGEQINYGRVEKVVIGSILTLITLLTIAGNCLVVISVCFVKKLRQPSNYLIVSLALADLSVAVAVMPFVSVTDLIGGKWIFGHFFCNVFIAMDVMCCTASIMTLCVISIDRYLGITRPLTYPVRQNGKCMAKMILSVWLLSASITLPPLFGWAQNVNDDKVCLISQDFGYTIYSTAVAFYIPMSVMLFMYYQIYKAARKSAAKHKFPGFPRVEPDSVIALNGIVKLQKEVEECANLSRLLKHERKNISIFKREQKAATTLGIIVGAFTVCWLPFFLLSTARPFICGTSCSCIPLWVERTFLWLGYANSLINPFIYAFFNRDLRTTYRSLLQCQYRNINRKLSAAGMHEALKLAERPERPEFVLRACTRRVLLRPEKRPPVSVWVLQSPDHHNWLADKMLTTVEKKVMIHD
QUANTITY_MEASURED: IC50 (nM)
Quick note: give the figure in nM, leave out the unit.

>>> df
                                   compound  quantity_measured  result
0  Cc1cc(C)cc(CCCN2C(=O)N(Cc3ccccc3)c3cc(Cl)cc(N4CCN(C)CC4)c3S2(=O)=O)c1 [Example 38]               IC50    9140

In: Item COc1ccc(CN2C(=O)N(Cc3ccccc3)c3cc(Cl)cc(N4CCNCC4)c3S2(=O)=O)cc1 [Example 53] : provide IC50
Out: 6580
